Measured pIC50 on Purified ERAP1 (37-941)-10His (ERAP1) (Homo sapiens) follows.
Sequence (Q9NZ08 37-941): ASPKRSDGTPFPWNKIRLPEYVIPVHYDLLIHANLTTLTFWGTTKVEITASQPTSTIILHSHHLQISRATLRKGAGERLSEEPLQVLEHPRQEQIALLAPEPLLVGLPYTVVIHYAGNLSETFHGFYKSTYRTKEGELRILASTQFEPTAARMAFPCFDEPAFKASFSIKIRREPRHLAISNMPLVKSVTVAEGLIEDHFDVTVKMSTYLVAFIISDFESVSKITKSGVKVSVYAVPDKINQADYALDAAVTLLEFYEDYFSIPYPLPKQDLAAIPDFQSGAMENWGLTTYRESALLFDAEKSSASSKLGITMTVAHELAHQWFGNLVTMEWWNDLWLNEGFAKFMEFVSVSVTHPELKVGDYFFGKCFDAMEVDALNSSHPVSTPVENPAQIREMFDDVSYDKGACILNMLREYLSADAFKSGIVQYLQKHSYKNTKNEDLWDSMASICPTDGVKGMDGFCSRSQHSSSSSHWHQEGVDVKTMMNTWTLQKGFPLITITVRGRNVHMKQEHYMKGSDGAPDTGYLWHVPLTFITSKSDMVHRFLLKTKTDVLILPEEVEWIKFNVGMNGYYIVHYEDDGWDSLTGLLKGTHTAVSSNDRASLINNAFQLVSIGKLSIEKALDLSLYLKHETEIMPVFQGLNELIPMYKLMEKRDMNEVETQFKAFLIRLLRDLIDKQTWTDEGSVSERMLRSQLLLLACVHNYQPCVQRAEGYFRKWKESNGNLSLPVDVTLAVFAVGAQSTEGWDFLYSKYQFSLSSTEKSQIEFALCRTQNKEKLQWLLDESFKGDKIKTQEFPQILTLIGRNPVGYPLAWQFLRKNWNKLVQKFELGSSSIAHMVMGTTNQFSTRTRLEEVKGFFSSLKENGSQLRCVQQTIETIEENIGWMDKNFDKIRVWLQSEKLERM
pIC50: −log10 of the molar value.

[
  {
    "compound": "COc1ccc(C(=O)O)cc1S(=O)(=O)Nc1cc(C(F)(F)F)ccc1N1CCCC(C)(O)C1 (stereo not shown) [Example 29]",
    "result": "> 6.30"
  },
  {
    "compound": "CS(=O)(=O)c1ccc(N2CCC(F)(F)CC2)c(NS(=O)(=O)c2cc(C(=O)O)ccc2C2CC2)c1 [Example 309]",
    "result": "> 6.30"
  },
  {
    "compound": "COc1ccc(C(=O)O)cc1S(=O)(=O)Nc1cc(Cl)c(Cl)cc1N1CCCCC1 [Example 202]",
    "result": "> 6.30"
  },
  {
    "compound": "CCc1ccc(C(=O)O)cc1S(=O)(=O)Nc1ccc(C(F)(F)F)cc1N1CCCCC1 [Example 230]",
    "result": "> 6.30"
  },
  {
    "compound": "COc1ccc(C(=O)O)cc1S(=O)(=O)Nc1cc(C(F)(F)F)ccc1N1CCCCCC1 [Example 68]",
    "result": "> 6.30"
  }
]

Task: Give pIC50 for this entry on Purified ERAP1 (37-941)-10His (ERAP1) (Homo sapiens): CCc1ccc(C(=O)O)cc1S(=O)(=O)Nc1cc(C(F)(F)F)ccc1N1CCC[C@@H](F)C1 [Example 211]
Output: > 6.30

Task: Specify the recorded pIC50 for O=C(O)c1ccc(C2CC2)c(S(=O)(=O)Nc2cc(-n3cnnn3)ccc2N2CC(O)C2)c1 [Example 325] , system: Purified ERAP1 (37-941)-10His (ERAP1) (Homo sapiens).
Output: > 6.30

Task: // output pIC50; input O=C(O)c1ccc(C2CC2)c(S(=O)(=O)Nc2cc(C(F)(F)F)ccc2N2CCCCC2)c1 [Example 267] ; system Purified ERAP1 (37-941)-10His (ERAP1) (Homo sapiens)
Output: > 6.30

Task: Tell me its pIC50 on Purified ERAP1 (37-941)-10His (ERAP1) (Homo sapiens): COc1ccc(C(=O)O)cc1S(=O)(=O)Nc1cc(C(F)(F)F)ccc1N1CCCC[C@H]1C [Example 235]
Output: > 6.30

Task: Send back Purified ERAP1 (37-941)-10His (ERAP1) (Homo sapiens) pIC50 of COc1ccc(C(=O)O)cc1S(=O)(=O)Nc1cc(C(F)(F)F)ccc1N1CCC(OC(C)C)CC1 [Example 187] only.
Output: > 5.30

Task: GET pIC50 | system: Purified ERAP1 (37-941)-10His (ERAP1) (Homo sapiens) | item: COc1ccc(C(=O)O)cc1S(=O)(=O)Nc1cc(-n2cnnn2)ccc1N1CCC[C@@H](O)C1 [Example 248]
Output: > 6.30

Task: Report pIC50 from Purified ERAP1 (37-941)-10His (ERAP1) (Homo sapiens) testing of COc1ccc(C(=O)O)cc1S(=O)(=O)Nc1cc(Cl)ccc1N1CCC(F)(F)CC1 [Example 218]
Output: > 6.30

Task: Check Purified ERAP1 (37-941)-10His (ERAP1) (Homo sapiens) data and give pIC50 for COc1ccc(C(=O)O)cc1S(=O)(=O)Nc1cc(C(F)(F)F)ccc1N1CCC(C)(C)C1 [Example 39] .
Output: > 5.30

Task: Enter recorded pIC50 with Purified ERAP1 (37-941)-10His (ERAP1) (Homo sapiens) for CCc1ccc(C(=O)O)cc1S(=O)(=O)Nc1cc(C(F)(F)F)ccc1N1CCC[C@H](O)C1 [Example 250] here.
Output: > 6.30
